Target: UniProtKB Q9UM07
Sequence (Q9UM07 whole entry): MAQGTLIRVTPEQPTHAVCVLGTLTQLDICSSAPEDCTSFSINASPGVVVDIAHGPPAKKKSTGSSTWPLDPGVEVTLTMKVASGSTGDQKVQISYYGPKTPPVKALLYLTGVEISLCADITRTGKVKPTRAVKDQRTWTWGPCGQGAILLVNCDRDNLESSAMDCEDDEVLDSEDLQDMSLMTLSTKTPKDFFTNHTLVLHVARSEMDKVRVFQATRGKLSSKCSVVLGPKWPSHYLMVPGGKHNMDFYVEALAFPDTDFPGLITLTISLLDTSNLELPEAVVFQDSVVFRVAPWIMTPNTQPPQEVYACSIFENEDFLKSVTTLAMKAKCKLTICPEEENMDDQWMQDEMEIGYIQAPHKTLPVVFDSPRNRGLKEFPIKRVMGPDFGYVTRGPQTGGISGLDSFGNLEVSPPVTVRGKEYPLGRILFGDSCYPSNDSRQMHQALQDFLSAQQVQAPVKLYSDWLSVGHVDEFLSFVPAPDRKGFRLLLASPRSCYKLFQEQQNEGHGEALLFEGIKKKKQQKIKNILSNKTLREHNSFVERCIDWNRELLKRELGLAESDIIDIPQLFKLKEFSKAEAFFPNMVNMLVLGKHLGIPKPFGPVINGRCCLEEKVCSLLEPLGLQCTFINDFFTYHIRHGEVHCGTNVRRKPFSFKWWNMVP
Assay: RFMS Human PAD4 Functional Assay 1
Conditions: RFMS assay 1; 5 nM hPAD4, 250 μM BAEE substrate, 50 μM calcium, 37° C.
pIC50: −log10 of the molar value.
# key: entry, value: pIC50
recorded-metric: pIC50

- Cc1c(-c2cc3cccc(C4CCN(C(=O)C(C)(C)CO)CC4)c3n2CC2CC2)nn2cc(C(=O)N3C[C@H](N)C[C@@H](F)C3)ccc12 [Example 433]: 6.85
- Cc1c(-c2cc3cccc(C4CCN(C(=O)[C@H]5CC[C@H](O)CC5)CC4)c3n2CC2CC2)nn2cc(C(=O)N3C[C@H](N)C[C@@H](F)C3)cc(F)c12 [Example 414]: 6.59
- Cc1c(-c2cc3ccc(-c4ccc(C(N)=O)c(Cl)c4)nc3n2CC2CC2)nn2cc(C(=O)N3C[C@H](N)C[C@@H](F)C3)ccc12 [Example 85]: 6.49

Source of measurements: patent US12473304B2
